# System: Cryptosporidium parvum
# assay: qRT-PCR assay of the growth of C. parvum in vitro in HCT-8 host cells (primary and secondary screening, EC50)
# Assay type: cell-based
# experimental_conditions: primary screening at 10 uM
Listed compounds paired with reported Inhibition (%)
reported_endpoint: Inhibition (%)

1. COc1cc(O)c(C(=O)/C=C/c2ccc(OC)c(O)c2)c(OC)c1	-6.64
2. COc1ccc(/C=C/C(=O)c2ccc(O)cc2O)cc1 [2',4'-DIHYDROXY-4-METHOXYCHALCONE]	14.88
3. C[C@@]1(O)CCOC(=O)C1	26.69
4. COc1cc2c(cc1OC)Cc1cc(OC)c(OC)cc1Cc1cc(OC)c(OC)cc1C2	83.81
5. CN[C@@H](C)[C@H](O)c1ccccc1.Cl [EPHEDRINE (1R,2S) HYDROCHLORIDE]	11.97
6. O.O=c1ccc2cc(O[C@@H]3OC(CO)[C@@H](O)[C@@H](O)C3O)c(O)cc2o1 (some centres unmarked) [ESCULIN MONOHYDRATE]	10.62
7. C=C1CCC(C2CC(=O)OC2=O)C(=O)CCC2C1CC2(C)C (centres unmarked)	23.70
8. COC[C@]12CN(C=O)[C@@H]3[C@@H]4[C@H](OC)[C@H]1[C@@]3([C@@H](OC)C[C@H]2O)[C@@H]1C[C@@]2(O)[C@H](OC(=O)c3ccccc3)[C@@H]1[C@]4(OC(C)=O)[C@@H](O)[C@@H]2OC	0.75
9. OC[C@H]1O[C@H](O[C@H]2[C@H](O)[C@@H](O)[C@H](O)O[C@@H]2CO)[C@H](O)[C@@H](O)[C@@H]1O [D-(+)-MALTOSE]	55.12
10. N[C@@H]1CONC1=O	-10.45
11. CC(=O)O[C@H]1CC[C@]2(C)C3=C(CC[C@H]2C1(C)C)[C@]1(C)CC[C@H]([C@H](C)CCC=C(C)C)[C@@]1(C)CC3 [LANOSTEROL ACETATE]	-3.78
12. CC(C)(O)[C@@H]1CC[C@](C)([C@H]2[C@@H](O)C[C@@]3(C)[C@@H]4C[C@H](O[C@@H]5O[C@H](CO)[C@@H](O)[C@H](O)[C@H]5O)[C@H]5C(C)(C)[C@@H](O[C@@H]6OC[C@@H](O)[C@H](O)[C@H]6O)CC[C@@]56C[C@@]46CC[C@]23C)O1 [ASTRAGALOSIDE IV]	-18.98
13. CN[C@@H]1[C@H](O)[C@H](NC)[C@H]2O[C@@]3(O)C(=O)C[C@@H](C)O[C@H]3O[C@@H]2[C@H]1O.Cl [SPECTINOMYCIN HYDROCHLORIDE]	-6.16
14. COc1cc2oc3cc(OC)c(OC)c(CC=C(C)C)c3c(=O)c2c(OC)c1CC=C(C)C	-8.08
